- Test system: HSkMC (human skeletal muscle cells)
- assay explanation: cytotoxicity call (relative viability < 0.9)
- condition set: 10 µM
Out of some 39,000 compounds screened, about 1,500 (3.8%) were called active. For the sample, actives were picked, then their nearest neighbours and some compounds at random.
outcome measure: cytotoxicity call

Here's what some known entries look like.
C[C@@H]1CCCCO[C@@H](CN(C)C(=O)Nc2ccccc2)[C@@H](C)CN([C@H](C)CO)C(=O)c2cc(NS(=O)(=O)c3ccccc3)ccc2O1    inactive
C[C@H]1CN([C@@H](C)CO)C(=O)c2cc(NC(=O)Cc3cn(C)c4ccccc34)ccc2O[C@H]1CN(C)Cc1ccc(Oc2ccccc2)cc1    inactive
Cc1noc(C)c1S(=O)(=O)N(C)C[C@@H]1Oc2ccc(NC(=O)Cc3cn(C)c4ccccc34)cc2CC(=O)N([C@@H](C)CO)C[C@H]1C    inactive
CC(C)NC(=O)N(C)C[C@@H]1Oc2cc(C#Cc3ccc(F)cc3)ccc2S(=O)(=O)N([C@H](C)CO)C[C@@H]1C    inactive
C[C@@H]1CN([C@H](C)CO)C(=O)c2cc(NC(=O)Cc3cn(C)c4ccccc34)ccc2O[C@H]1CN(C)Cc1ccc(Oc2ccccc2)cc1    inactive

# get_value(readout='cytotoxicity call', item= "C[C@@H]1CN([C@@H](C)CO)C(=O)c2cc(NC(=O)Cc3cn(C)c4ccccc34)ccc2O[C@H]1CN(C)Cc1ccc(-c2ccccc2)cc1" )
inactive

# get_value(readout='cytotoxicity call', item= "CNc1cccc(CN)c1" )
inactive
